// values below are reported growth inhibition
methodSummary: NCI Yeast Anticancer Drug Screen. Data for the rad50 strain (AID 155);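 further: 0% = growth of vehicle-only cultures of the same strain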
conditionNotes: S. cerevisiae rad50 strain growth inhibition; at 50.0 µM; active compounds read high
About 79,000 compounds went through this panel and 15% of them were active in at least one assay; those are over-represented in the sample as a whole.
readoutType: growth inhibition (%)

compound: COC(=O)C1=CCOc2c1c(C(=O)OC)nn2C
readoutType: growth inhibition
unit: %
reading: -4.8
--
compound: O=c1[nH]c(=O)c2nccnc2[nH]1
readoutType: growth inhibition
unit: %
reading: 9.1
--
compound: CSc1nc2cc(C)c(C)cc2[nH]1
readoutType: growth inhibition
unit: %
reading: -5.1
--
compound: N#CCCNc1ccc2c(c1)Cc1ccccc1-2
readoutType: growth inhibition
unit: %
reading: 1.65
--
compound: O=c1[nH]nc(-c2ccccc2)c2c1[nH]c1ccccc12
readoutType: growth inhibition
unit: %
reading: -13.8
--
compound: CC(C)=Nn1cnc(C(=N)C#N)c1N
readoutType: growth inhibition
unit: %
reading: 22.9
--
compound: Cc1occc1C(=S)Nc1ccc(Cl)c(C(=O)OC2CCCC2)c1
readoutType: growth inhibition
unit: %
reading: 40.1
--
compound: CCSCC(C)C(=O)OC (stereo unspecified)
readoutType: growth inhibition
unit: %
reading: -26.6
--
compound: C/C=C/C1OCCC(C)O1 (stereo unspecified)
readoutType: growth inhibition
unit: %
reading: 41.3
--
compound: c1ccc(-c2oc3ccccc3c2-c2ccc(OCCN3CCCC3)cc2)cc1
readoutType: growth inhibition
unit: %
reading: 99.5
--
compound: O=C(Nc1ccc(Cl)cc1)NS(=O)(=O)c1coc2cc(F)ccc2c1=O
readoutType: growth inhibition
unit: %
reading: 7
--
compound: O=S(=O)(SC1=NCCN1)c1cccc2ccccc12
readoutType: growth inhibition
unit: %
reading: 3
--
compound: CCN(CC)CCNc1cc(C)nc(/N=C(\N)Nc2ccc(Cl)cc2)n1
readoutType: growth inhibition
unit: %
reading: 23.9
--
compound: CCCC1(C)OCC(C)([N+](=O)[O-])CO1 (stereo unspecified)
readoutType: growth inhibition
unit: %
reading: -26
--
compound: C=CCSc1nc2ccc(N3C(=O)CCC3=O)cc2s1
readoutType: growth inhibition
unit: %
reading: 15.4
--
compound: COc1ccc(C2=C(OC(=O)N(C)C)c3cccn3-c3cc(Cl)ccc3S2)cc1
readoutType: growth inhibition
unit: %
reading: -7.3

###

// values below are reported growth inhibition
methodSummary: NCI Yeast Anticancer Drug Screen. Data for the mec2-1 strain (AID 157)
conditionNotes: S. cerevisiae mec2-1 strain, at 50.0 µM, active compounds read high
The panel holds about 79,000 compounds, 15% with a hit somewhere; the sample as a whole holds those more often.

compound: CC(=O)NC(C)C#N (stereo not drawn)
growth inhibition [%]: -14.1
//
compound: CC(=O)Nc1ccc2c(c1)Cc1c(F)cc(F)cc1-2
growth inhibition [%]: -9
//
compound: Nc1cc(Cl)nc(Cl)n1
growth inhibition [%]: -25.6
//
compound: CCCCCCCCC(Br)C(Br)CCCCCCCC(=O)N(CCCC)CCCC (stereo not drawn)
growth inhibition [%]: 10.6
//
compound: CCCCC/C(=N\Nc1ccc([N+](=O)[O-])cc1[N+](=O)[O-])c1ccc(-c2ccccc2)cc1
growth inhibition [%]: 6.05
//
compound: CC(C)(C)C(=O)CC(=O)C(C)(C)C.[Cu]
growth inhibition [%]: -9.35
//
compound: O=C(O)c1c2ccccc2nc2c1sc1ccccc12
growth inhibition [%]: -8
//
compound: Cc1cc(N)c(NC2OC(CO)C(O)C2O)cc1C (stereo not drawn)
growth inhibition [%]: 0.8
//
compound: CN(C)CCC(=O)c1ccc(C(=O)CCN(C)C)cc1
growth inhibition [%]: 25.6
//
compound: CC(CC(=O)O)(CC(=O)O)c1ccccc1
growth inhibition [%]: -35.5
//
compound: c1ccc(C(NC2=NCCO2)C2CC2)cc1 (stereo not drawn)
growth inhibition [%]: -18.4
//
compound: CCOC(=O)CCC1(C(=O)OCC)CCCC1=O (stereo not drawn)
growth inhibition [%]: -21.3
//
compound: Cc1cc(=O)oc2cc3c(cc12)Oc1ccccc1O3
growth inhibition [%]: -11.2
//
compound: CCOCCOC(=O)c1ccc(C(N)=NC2CCCCC2)cc1
growth inhibition [%]: -2.4
//
compound: O=C(/C=C/c1ccc(O)c(O)c1)c1ccc(O)cc1O
growth inhibition [%]: -27.9
//
compound: O=C(N/C(=C\c1ccccc1Cl)c1nc2ccccc2[nH]1)c1ccccc1
growth inhibition [%]: -15.1
//
compound: CN1C(=O)CC2(C)c3cc(O)cc(Br)c3N(C)C12 (stereo not drawn)
growth inhibition [%]: -10.5
//
compound: COc1ccc(C(C)=O)c(O)c1
growth inhibition [%]: -15.2

###

methodSummary: NCI Yeast Anticancer Drug Screen. Data for the cln2 rad14 strain (AID 165);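 further: 0% = growth equal to vehicle treated cultures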
conditionNotes: S. cerevisiae cln2 rad14 strain, at 50.0 µM, active compounds read high
This is part of a sample that, as a whole, favours compounds with a hit. Of some 79,000 tested, about 15% had one in any assay.
// values below are reported growth inhibition

compound: CCCCCCCC(=O)NC(O)C(Cl)(Cl)C(C)Cl (stereo not drawn)
growth inhibition [%]: -21.4

compound: O=C1c2ccccc2C(=O)N1Cl
growth inhibition [%]: -0.05

compound: CCOC(=O)c1nc2ccccc2nc1NCc1ccc(OC)cc1
growth inhibition [%]: 6.55

compound: Oc1ccc(C(c2ccc(O)cc2)c2ccc(O)cc2)cc1
growth inhibition [%]: 19.1

compound: COC(=O)[C@@H]1CCC(/C(C#N)=C2/CC[C@@H](C(=O)OC)N2)=N1
growth inhibition [%]: -5.1

compound: COc1ccc(C(NCCn2cnc3c2c(=O)n(C)c(=O)n3C)c2ccccc2)cc1 (stereo not drawn)
growth inhibition [%]: -33.6

compound: CCCCCCCCCCCCCCCCc1c(C(=O)OC)nc(NN)[nH]c1=O
growth inhibition [%]: -2.85

compound: CCOC(=O)/C(N=Nc1ccc(O)cc1)=C(\C)O
growth inhibition [%]: 24.9

compound: CC1=Nc2ccccc2NC2(C1)C(C1COC(C)(C)O1)OC1OC(C)(C)OC12 (stereo not drawn)
growth inhibition [%]: 21.5

compound: Cc1cc2c(cc1C)C(O)CCC(=O)N2 (stereo not drawn)
growth inhibition [%]: 6.85

compound: C=CCOC(=O)CC(=O)OCC=C
growth inhibition [%]: -4

compound: COc1ccc(Cl)cc1NC(=O)c1ccc(C(=O)Nc2cc(Cl)ccc2OC)cc1
growth inhibition [%]: -22.9

compound: C/C(=N\Nc1ccc2ccccc2n1)c1ccccc1O
growth inhibition [%]: -25.8

compound: O=C(O)C(Cc1ccccc1)c1ccccc1 (stereo not drawn)
growth inhibition [%]: -21.4

compound: COC(=O)Nc1cccc(NC(=O)C(=O)O)c1
growth inhibition [%]: -29.4

compound: CCOC(=O)C1Sc2c(c(=O)n(C)c3ccccc23)C1=O (stereo not drawn)
growth inhibition [%]: 40.7

compound: COc1ccc2c(c1)C(=O)[C@]1(C)C3(C)OC(=O)C(c4ccccc43)[C@]21C (stereo partly drawn)
growth inhibition [%]: 9.3

compound: COC(=O)c1c2cccccc-2c(C(=O)OC)c1N
growth inhibition [%]: -24.8

compound: Oc1ccc(Cl)c(O)c1
growth inhibition [%]: 0.9

compound: Cc1ccc(C)c(NC(=O)C(=O)C(C(=O)c2ccc3ccccc3c2)C2OC(=O)c3ccccc32)c1 (stereo not drawn)
growth inhibition [%]: 23.5

compound: O=C(c1ccccc1)c1oc2ccc(Br)cc2c1-c1cnn(-c2ccccc2)c1
growth inhibition [%]: 15.1

compound: Cc1nc2ccccc2c(=O)n1NC(=O)c1ccccn1
growth inhibition [%]: -1.05

compound: COc1ccc(NC(=O)CC(=O)n2nc(C)c(N=Nc3ccccc3C(=O)O)c2C)cc1
growth inhibition [%]: -42.5

compound: COC1CC(C)(NC(=O)C(F)(F)F)C2OC(c3ccccc3)OCC2O1 (stereo not drawn)
growth inhibition [%]: -35

compound: COc1ccc2nccc(NCCCN3CCN(CCCNc4ccnc5ccc(OC)cc45)CC3)c2c1
growth inhibition [%]: -6.2

compound: Cc1cc(C)c(CSc2cc(N)nc(N)c2N)c(C)c1
growth inhibition [%]: 5.9

compound: CCN(CC)C(=O)c1ccc[n+](Cc2ccc(Cl)c(Cl)c2)c1
growth inhibition [%]: 6.45

compound: NC(C(F)(F)F)(C(F)(F)F)P(=O)(Cc1ccccc1)Cc1ccccc1
growth inhibition [%]: -13.8

compound: CC1=C(C)CN(CCC(=O)O)C(C(N)=O)C1 (stereo not drawn)
growth inhibition [%]: 17.5

compound: CC1OC(OC2C(O)C(OCCc3ccc(O)c(O)c3)OC(CO)C2OC(=O)/C=C/c2ccc(O)c(O)c2)C(O)C(O)C1O (stereo not drawn)
growth inhibition [%]: 8.25

compound: CCN(CC)CCC1CCNCC1
growth inhibition [%]: 15.8

compound: Cc1nc2ccccc2c(=O)n1/N=C\c1ccc2c(c1)CCC2
growth inhibition [%]: 18.2

compound: CCCCCCCC(=O)C(C)C
growth inhibition [%]: 4.4

compound: CCc1nnc2n1N=C(c1ccc(-c3ccccc3)cc1)CS2
growth inhibition [%]: 5.05

compound: CN(C)c1ccc(/C=N/N(Cc2ccccc2)c2ccccc2)cc1
growth inhibition [%]: -11.6

compound: CCC(C)NC(=O)/C=C/c1ccccc1 (stereo not drawn)
growth inhibition [%]: 12.4

compound: CC(C)(C)CC(C)(C)c1ccc2c(c1)NC(C1Nc3cc(C(C)(C)CC(C)(C)C)ccc3O1)O2 (stereo not drawn)
growth inhibition [%]: -4.4

compound: Cn1ccnc1Sc1ccccn1
growth inhibition [%]: 21.9
